B1: EHEE_rd2_1257 (parent)
chain: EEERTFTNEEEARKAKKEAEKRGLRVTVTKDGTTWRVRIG

Variants of: B1
Experiment: folding stability dG (cDNA display proteolysis); higher = more stable
Settings: PBS, room temperature
Decision: folding stability dG compared against 2 kcal/mol; not below it gives Y, below it gives N.

Prompt: I'd appreciate it if you could say whether EEERTFTNEEEARKAKKEAEKRGLRVTVTKDETTWRVRIG [G32E] has folding stability dG at least equal to 2 kcal/mol.
Response: N

Prompt: What do you have for EEERTFTNEAEARKAKKEAEKRGLRVTVTKDGTTWRVRIG [E10A] ?
Response: Y

Prompt: What do you have for EEERTFTNEEEARKARKEAEKRGLRVTVTKDGTTWRVRIG [K16R] ?
Response: N

Prompt: What do you have for EEERTFTNEEEARKAKKEAEKRGLRVTVTKDGTTWRVRIH [G40H] ?
Response: Y

Prompt: What do you have for EEERTFANEEEARKAKKEAEKRGLRVTVTKDGTTWRVRIG [T7A] ?
Response: N

Prompt: What do you have for EEERTFTNEEEARKAKKEAEKRGLRVTVTKDMTTWRVRIG [G32M] ?
Response: N

Prompt: What do you have for EEERTFTNEEEARKAKKEAEKRGLRVTVTKDQTTWRVRIG [G32Q] ?
Response: N

Prompt: What do you have for EEERTFTNEEEARKAKKEAEKRQLRVTVTKDGTTWRVRIG [G23Q] ?
Response: N
